Reference source for all entries: patent US12043601B2

IVT by entry:
Molecular target: DksA (Salmonella typhimurium)
Assay: DksA-dependent livJ in vitro transcription
Format: biochemical
Conditions: concentration showing activity; livJ promoter
Description: To measure the potency of a compound in inhibition of DksA biological function, rpsMtranscripts in vitro was determined by non-radioactive in vitro transcription reactions with qPCR analysis with divergent compounds. […] The amount of cDNA synthesized for 1 h at 42° C. was quantified by real-time PCR (qRT-PCR). The copy number of specific transcripts was calculated to the standard curve generated with known gene copy concentrations. […] Standard deviation was calculated from 3 independent experiments. […]
The reply should contain only the number, in µM.

Worked examples follow.
>  <SMILES_REPRESENTATION>
O=C(Nc1ccc(C(F)(F)F)cc1)c1nc[nH]n1

>  <TARGET>
DksA (Salmonella typhimurium)

>  <IVT (µM)>
0.1

$$$$
>  <SMILES_REPRESENTATION>
O=C(NCCc1c[nH]c2ccccc12)c1nc[nH]n1

>  <TARGET>
DksA (Salmonella typhimurium)

>  <IVT (µM)>
0.1

$$$$

Now take the following molecule into account.
// returns reported IVT for input "O=C(NCCCc1ccccc1)c1nc[nH]n1"
0.1

---

Biological target: DksA (Salmonella typhimurium)
Test: DksA-dependent livJ in vitro transcription
Format: biochemical
Settings: 0.1 μM; livJ promoter
RECORDED_METRIC: In vitro transcription assay result, 0.1 μM

Worked examples follow.
>  <MOLECULE>
C[C@H](NC(=O)c1nc[nH]n1)c1ccccc1

>  <RESULT>
no induction

$$$$
>  <MOLECULE>
CCCCNC(=O)c1nc[nH]n1 [Compound 12, N-butyl-1H-1,2,4-triazole-3-carboxamide]

>  <RESULT>
no induction

$$$$
>  <MOLECULE>
O=C(NCCc1c[nH]c2ccccc12)c1nc[nH]n1

>  <RESULT>
no induction

$$$$
>  <MOLECULE>
COc1ccc(CCNC(=O)c2nc[nH]n2)cc1

>  <RESULT>
no induction

$$$$
>  <MOLECULE>
O=C(Nc1cccc(OC(F)(F)F)c1)c1nc[nH]n1

>  <RESULT>
no induction

$$$$

// returns reported In vitro transcription assay result, 0.1 μM for input "COc1ccc(CNC(=O)c2nc[nH]n2)cc1C(F)(F)F"
no change

---

Assay: Compound solubility
Type: physicochemical
Conditions: solvent at 1 μM
RECORDED_METRIC: Compound Solubility, 1 μM

Worked examples follow.
>  <MOLECULE>
O=C(NCc1cccc(OC(F)(F)F)c1)c1nc[nH]n1

>  <RECORDED_METRIC>
Compound Solubility, 1 μM

>  <RESULT>
water

$$$$
>  <MOLECULE>
O=C(Nc1ccc(C(F)(F)F)cc1)c1nc[nH]n1

>  <RECORDED_METRIC>
Compound Solubility, 1 μM

>  <RESULT>
water

$$$$
>  <MOLECULE>
COc1ccc(CNC(=O)c2nc[nH]n2)cc1

>  <RECORDED_METRIC>
Compound Solubility, 1 μM

>  <RESULT>
water

$$$$
>  <MOLECULE>
O=C(Nc1cc(Cl)cc(Cl)c1)c1nc[nH]n1

>  <RECORDED_METRIC>
Compound Solubility, 1 μM

>  <RESULT>
water

$$$$

// returns reported Compound Solubility, 1 μM for input "COc1ccc(CNC(=O)c2nc[nH]n2)cc1OC"
water

Another molecule to look at: CCCCNC(=O)c1nc[nH]n1 [Compound 12, N-butyl-1H-1,2,4-triazole-3-carboxamide]
water

Another molecule to look at: "O=C(NCc1ccc2c(c1)OCO2)c1nc[nH]n1"
water

Another molecule to look at: "CC(C)(C)c1ccc(NC(=O)c2nc[nH]n2)cc1"
water

Another molecule to look at: "O=C(Nc1cccc(OC(F)(F)F)c1)c1nc[nH]n1"
water

Another molecule to look at: "O=C(NCCCCc1ccccc1)c1nc[nH]n1"
water

Another molecule to look at: "COc1cccc(CNC(=O)c2nc[nH]n2)c1OC"
water

Another molecule to look at: "COc1cccc(CNC(=O)c2nc[nH]n2)c1"
water

Another molecule to look at: "O=C(NCc1ccc(OC(F)(F)F)cc1)c1nc[nH]n1"
water

Another molecule to look at: "COc1ccc([C@@H](C)NC(=O)c2nc[nH]n2)cc1"
water

---

Test: Compound solubility
Assay type: physicochemical
Details: solvent at 100 μM
RECORDED_METRIC: Compound Solubility, 100 μM

>  <SMILES_REPRESENTATION>
COc1ccc(CNC(=O)c2nc[nH]n2)cc1

>  <Compound Solubility, 100 μM>
water

$$$$
>  <SMILES_REPRESENTATION>
O=C(NCCCc1ccccc1)c1nc[nH]n1

>  <Compound Solubility, 100 μM>
water

$$$$
>  <SMILES_REPRESENTATION>
O=C(Nc1cccc(OC(F)(F)F)c1)c1nc[nH]n1

>  <Compound Solubility, 100 μM>
water

$$$$
>  <SMILES_REPRESENTATION>
COc1ccc(CNC(=O)c2nc[nH]n2)cc1OC

>  <Compound Solubility, 100 μM>
water

$$$$
>  <SMILES_REPRESENTATION>
COc1ccc(NC(=O)c2nc[nH]n2)cc1OC

>  <Compound Solubility, 100 μM>
water

$$$$
>  <SMILES_REPRESENTATION>
O=C(NCCc1ccccc1)c1nc[nH]n1

>  <Compound Solubility, 100 μM>
water

$$$$

// returns reported Compound Solubility, 100 μM for input "COc1ccc(CCNC(=O)c2nc[nH]n2)cc1"
water

Another molecule to look at: "O=C(NCc1ccc(OC(F)(F)F)cc1)c1nc[nH]n1"
water

Another molecule to look at: "O=C(NCCc1c[nH]c2ccccc12)c1nc[nH]n1"
water

Another molecule to look at: "O=C(NCc1cccc(OC(F)(F)F)c1)c1nc[nH]n1"
water

Another molecule to look at: "C[C@H](NC(=O)c1nc[nH]n1)c1ccccc1"
water

Another molecule to look at: "O=C(Nc1ccc(C(F)(F)F)cc1)c1nc[nH]n1"
water

---

Target: DksA (Salmonella typhimurium)
RECORDED_METRIC: pIC50
Note on units: pIC50 is unitless, being -log10 of a concentration expressed in mol/L.

Worked examples follow.
>  <COMPOUND>
O=C(NCCc1ccccc1)c1nc[nH]n1

>  <pIC50>
7.05

$$$$
>  <COMPOUND>
CCCCNC(=O)c1nc[nH]n1 [Compound 12, N-butyl-1H-1,2,4-triazole-3-carboxamide]

>  <pIC50>
7.14

$$$$
>  <COMPOUND>
O=C(Nc1cc(Cl)cc(Cl)c1)c1nc[nH]n1

>  <pIC50>
7.15

$$$$

// returns reported pIC50 for input "O=C(NCCc1c[nH]c2ccccc12)c1nc[nH]n1"
7.12

Another compound to look at: "O=C(NCCCCc1ccccc1)c1nc[nH]n1"
7.04

Another compound to look at: "O=C(NCCCc1ccccc1)c1nc[nH]n1"
7.29

---

Molecular target: DksA (Salmonella typhimurium)
Experiment: DksA-dependent livJ in vitro transcription
Type: biochemical
Conditions: concentration showing activity; livJ promoter
RECORDED_METRIC: IVT (µM)
The reply should contain only the number, in µM.

>  <COMPOUND>
CCCCNC(=O)c1nc[nH]n1 [Compound 12, N-butyl-1H-1,2,4-triazole-3-carboxamide]

>  <TARGET>
DksA (Salmonella typhimurium)

>  <RESULT_UNITS>
µM

>  <NUMERIC_RESULT>
0.1

$$$$

Checklist item: IVT tested on DksA (Salmonella typhimurium), entry "C[C@@H](NC(=O)c1nc[nH]n1)c1ccccc1" , value?
0.1

Another compound to look at: "O=C(NCCCCc1ccccc1)c1nc[nH]n1"
0.1

Another compound to look at: "O=C(Nc1cc(Cl)cc(Cl)c1)c1nc[nH]n1"
0.1

Another compound to look at: "O=C(Nc1cccc(OC(F)(F)F)c1)c1nc[nH]n1"
0.1

---

Biological target: DksA (Salmonella typhimurium, UniProt P0A1G5)
Sequence (P0A1G5 whole entry): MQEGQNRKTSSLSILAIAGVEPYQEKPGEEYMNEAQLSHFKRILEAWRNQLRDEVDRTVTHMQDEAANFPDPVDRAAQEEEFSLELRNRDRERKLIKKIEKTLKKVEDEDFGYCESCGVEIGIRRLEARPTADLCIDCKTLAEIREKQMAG
Assay: DksA-dependent livJ in vitro transcription
Assay type: biochemical
Conditions: 1 μM; livJ promoter
RECORDED_METRIC: In vitro transcription assay result, 1 μM

>  <COMPOUND>
CCCCNC(=O)c1nc[nH]n1 [Compound 12, N-butyl-1H-1,2,4-triazole-3-carboxamide]

>  <RESULT>
no induction

$$$$
>  <COMPOUND>
C[C@H](NC(=O)c1nc[nH]n1)c1ccccc1

>  <RESULT>
no induction

$$$$
>  <COMPOUND>
O=C(Nc1cccc(OC(F)(F)F)c1)c1nc[nH]n1

>  <RESULT>
no induction

$$$$
>  <COMPOUND>
COc1cccc(CNC(=O)c2nc[nH]n2)c1

>  <RESULT>
no change

$$$$

// returns reported In vitro transcription assay result, 1 μM for input "COc1ccc(CCNC(=O)c2nc[nH]n2)cc1"
no induction

Another compound to look at: "O=C(Nc1ccc(C(F)(F)F)cc1)c1nc[nH]n1"
good repression

Another compound to look at: "O=C(NCCc1c[nH]c2ccccc12)c1nc[nH]n1"
no induction

Another compound to look at: "COc1ccc(CNC(=O)c2nc[nH]n2)cc1OC"
no change

Another compound to look at: "COc1ccc(CNC(=O)c2nc[nH]n2)cc1C(F)(F)F"
no induction

Another compound to look at: "COc1ccc(NC(=O)c2nc[nH]n2)cc1OC"
good repression

Another compound to look at: "O=C(NCc1ccc2c(c1)OCO2)c1nc[nH]n1"
no change
